Values from patent US20210198366A1

Molecular target: T1, human B7-H7 expressed on the cell surface (human, UniProt Q9UM44 23-414)
T1 sequence: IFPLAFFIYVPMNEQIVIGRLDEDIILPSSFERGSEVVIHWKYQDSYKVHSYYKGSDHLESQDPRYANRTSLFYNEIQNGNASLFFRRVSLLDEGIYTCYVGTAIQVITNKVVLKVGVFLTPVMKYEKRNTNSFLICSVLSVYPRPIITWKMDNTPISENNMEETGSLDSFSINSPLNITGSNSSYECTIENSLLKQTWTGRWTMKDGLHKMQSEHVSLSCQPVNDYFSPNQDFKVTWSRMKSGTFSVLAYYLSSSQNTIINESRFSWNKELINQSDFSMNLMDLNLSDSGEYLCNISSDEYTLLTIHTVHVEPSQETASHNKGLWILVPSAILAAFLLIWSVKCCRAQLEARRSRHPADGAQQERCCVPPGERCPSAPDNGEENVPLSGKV
Assay: cell-based or functional assay
Observed Property: Induction of NK-92 cytotoxicity EC50 (nM)
Write it as a number; the unit nM goes unstated.

anti-B7-H7 antibody 3H6 (antibody, V domains shown, Mouse hybridoma antibody) VH: EVQLQQSGPELVKPGASVKISCKTSGYTFTEYTMHWVKQSHGKSLEWIGGINPNNGGAPYNQKFKGKATLTVDKSSSTAYMELRSLTSEDSAVYYCARGGYYFDYWGQGTTLTVSS VL: DIVMTQSHKFMSTSVGDRVSITCKASQDVSTAVAWYQQKSGQSPKLLIYWASTRHTGVPDRFTGSGSGTDYTLTISSVQAEDLALYYCQQHYDTPFTFGGGTKLEIK: 0.8

Now, please, on to the next binder.
I have this binder here, anti-B7-H7 antibody 16D5 (antibody, V domains shown, Mouse hybridoma antibody) VH: QVQLQQSAAELARPGASVKMSCKASGYTFTTYTMHWVKQRPGQGLEWIGYINPSRGYSDYSQKFQGKSTLTTDKSSNTAYIQLTSLTSEDSAVYFCARGGYDFDYWGQGTTLTVSS VL: DIVMTQSHKFMSTSVGDRVSITCKASQDVGTAVAWYQQKPGQSPKLLLYWASTRHTGVPDRFTGSGSGTDYTLTISSVQAEDLALYHCQQHFITPYTFGGGTKLEIK , and I need its recorded Induction of NK-92 cytotoxicity EC50.
0.5
